# tested-system: UniProt:P21453
# Sequence (P21453 whole entry, species assumed): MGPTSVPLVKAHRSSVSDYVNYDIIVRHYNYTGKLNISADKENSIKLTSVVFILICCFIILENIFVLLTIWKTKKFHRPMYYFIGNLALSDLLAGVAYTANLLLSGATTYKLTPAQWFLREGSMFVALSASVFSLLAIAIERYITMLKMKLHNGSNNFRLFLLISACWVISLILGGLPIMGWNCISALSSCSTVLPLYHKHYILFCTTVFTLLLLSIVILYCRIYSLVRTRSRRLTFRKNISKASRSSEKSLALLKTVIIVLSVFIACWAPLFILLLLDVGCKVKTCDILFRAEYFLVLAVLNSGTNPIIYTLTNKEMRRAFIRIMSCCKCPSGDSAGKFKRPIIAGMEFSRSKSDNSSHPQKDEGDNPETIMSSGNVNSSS
# test-protocol: Receptor binding assay, [33P]sphingosine 1-phosphate competition, S1P1
# condition: 384 well-plate; read-out: S1P1 binding IC50 (M) (384 well-plate)
Counter-ions that a name gives are not always drawn.
measurement-type: IC50 (M)
Record the value in M, omitting the unit from your answer.

Param readout= IC50; system= UniProt:P21453; entry= COCc1cc(-c2nc(-c3cnc(N)nc3)no2)ccc1-c1ccccc1C [Example 17] ; returns value.
2.92e-08

Param readout= IC50; system= UniProt:P21453; entry= COCc1cc(-c2nc(-c3cnc(N)c(C)c3)no2)ccc1-c1ccccc1C [Example 18, hydrochloride salt] ; returns value.
1.52e-08

Param readout= IC50; system= UniProt:P21453; entry= COCc1cc(-c2nc(-c3cnc(NCCO)c(Cl)c3)no2)ccc1-c1ccccc1F [Example 62] ; returns value.
7.54e-09

Param readout= IC50; system= UniProt:P21453; entry= COCc1cc(-c2nc(-c3ccc(N)nc3)no2)ccc1-c1ccccc1Cl [Example 32] ; returns value.
2.12e-08
